Test system: MRSA (Strain ATCC 43300)
ASSAY NOTES: Murine thigh infection model (MRSA)
Format: in vivo, Staphylococcus aureus
CONDITION LABEL: neutropenic CD1 mice, single subcutaneous dose 50 mg/kg
PROPERTY MEASURED: Average Reduction log Δcfu MRSA/thigh after 26 h

Prompt line: Any idea what Average Reduction log Δcfu MRSA/thigh after 26 h was measured for CNC(CC(C)C)C(=O)NC1C(=O)NC(CC(N)=O)C(=O)NC2C(=O)NC3C(=O)NC(C(=O)NC(C(=O)NCCCNC(=O)C(CCCCN)NC(=O)C(CCCCN)NC(=O)c4ccc(Cl)cc4)c4cc(O)cc(O)c4-c4cc3ccc4O)C(O)c3ccc(c(Cl)c3)Oc3cc2cc(c3OC2OC(CO)C(O)C(O)C2OC2CC(C)(N)C(O)C(C)O2)Oc2ccc(cc2Cl)C1O (centres unmarked) [MCC_005362] ?
Response line: xxx (xxx = 4-6)

Prompt line: Record request: Average Reduction log Δcfu MRSA/thigh after 26 h value, item CNC(CC(C)C)C(=O)NC1C(=O)NC(CC(N)=O)C(=O)NC2C(=O)NC3C(=O)NC(C(=O)NC(C(=O)NCCCNC(=O)C(CCCCN)NC(=O)C(CCCCN)NC(=O)CC4CCCCC4)c4cc(O)cc(O)c4-c4cc3ccc4O)C(O)c3ccc(c(Cl)c3)Oc3cc2cc(c3OC2OC(CO)C(O)C(O)C2OC2CC(C)(N)C(O)C(C)O2)Oc2ccc(cc2Cl)C1O (centres unmarked) [MCC_005363]
Response line: xxx (xxx = 4-6)

Prompt line: Dear colleague, I am looking for the recorded Average Reduction log Δcfu MRSA/thigh after 26 h of the following compound: CNC(CC(C)C)C(=O)NC1C(=O)NC(CC(N)=O)C(=O)NC2C(=O)NC3C(=O)NC(C(=O)NC(C(=O)NCCCCC(NC(=O)C(CCCCN)NC(=O)C(CCCCN)NC(=O)c4ccc(Oc5ccccc5)cc4)C(=O)O)c4cc(O)cc(O)c4-c4cc3ccc4O)C(O)c3ccc(c(Cl)c3)Oc3cc2cc(c3OC2OC(CO)C(O)C(O)C2OC2CC(C)(N)C(O)C(C)O2)Oc2ccc(cc2Cl)C1O (centres unmarked) [MCC_000214, (4-PhO-PhCO)-KK-K(Vanc)-OH]
Response line: xxx (xxx = 4-6)

Prompt line: For CCCCCCCCCC(=O)N[C@@H](Cc1c[nH]c2ccccc12)C(=O)N[C@H](CC(N)=O)C(=O)N[C@@H](CC(=O)O)C(=O)N[C@@H]1C(=O)NCC(=O)N[C@@H](CCCN)C(=O)N[C@@H](CC(=O)O)C(=O)N[C@H](C)C(=O)N[C@@H](CC(=O)O)C(=O)NCC(=O)N[C@H](CO)C(=O)N[C@@H]([C@H](C)CC(=O)O)C(=O)N[C@@H](CC(=O)c2ccccc2N)C(=O)O[C@@H]1C [Daptomycin, reference compound] , what is its reported Average Reduction log Δcfu MRSA/thigh after 26 h?
Response line: xxx (xxx = 4-6)

----------
ASSAY NOTES: Stability of compounds in human plasma
CONDITION LABEL: 6 h, 50% human plasma/PBS pH 7.4, 37° C.
Exercise: for every item that follows, state its recorded % compound remaining after incubation in 50% human plasma.
Give bare numbers, in %.

Take a look at these entries with their results.
Prompt line: Entry under review: CNC(CC(C)C)C(=O)NC1C(=O)NC(CC(N)=O)C(=O)NC2C(=O)NC3C(=O)NC(C(=O)NC(C(=O)NCCCCC(NC(=O)C(CCCCN)NC(=O)C(CCCCN)NC(=O)C(CCCCNC(=O)c4ccc(Oc5ccccc5)cc4)NC(=O)c4ccc(Oc5ccccc5)cc4)C(=O)O)c4cc(O)cc(O)c4-c4cc3ccc4O)C(O)c3ccc(c(Cl)c3)Oc3cc2cc(c3OC2OC(CO)C(O)C(O)C2OC2CC(C)(N)C(O)C(C)O2)Oc2ccc(cc2Cl)C1O (stereo not drawn) . Reported % compound remaining after incubation in 50% human plasma?
Response line: 103

Prompt line: Please give the measured % compound remaining after incubation in 50% human plasma for this compound: CN[C@H](CC(C)C)C(=O)N[C@H]1C(=O)N[C@@H](CC(N)=O)C(=O)N[C@H]2C(=O)N[C@H]3C(=O)NC(C(=O)N[C@H](C(=O)O)c4cc(O)cc(O)c4-c4cc3ccc4O)[C@H](O)c3ccc(c(Cl)c3)Oc3cc2cc(c3OC2OC(CO)C(O)C(O)C2OC2CC(C)(N)C(O)C(C)O2)Oc2ccc(cc2Cl)[C@H]1O (stereo partly drawn) [MCC_000095, vancomycin, reference compound]
Response line: 149

Okay, next one:
Prompt line: Record request: % compound remaining after incubation in 50% human plasma value, item CCCCCCCCCCC(=O)N[C@@H](CCCCN)C(=O)N[C@@H](CCCCNC(=O)[C@H]1NC(=O)[C@H]2NC(=O)[C@H](NC(=O)[C@@H]3NC(=O)[C@H](CC(N)=O)NC(=O)[C@H](NC(=O)[C@@H](CC(C)C)NC)[C@H](O)c4ccc(c(Cl)c4)Oc4cc3cc(c4O[C@@H]3O[C@H](CO)[C@@H](O)[C@H](O)[C@H]3O[C@H]3C[C@](C)(N)[C@H](O)[C@H](C)O3)Oc3ccc(cc3Cl)[C@H]2O)c2ccc(O)c(c2)-c2c(O)cc(O)cc21)C(=O)O [MCC_000080, nC10CO-K-K(Vanc)-OH]
Response line: 100

----------
System: Enterococcus faecium MDR Van A ATCC 51559
ASSAY NOTES: MIC assay, E. faecium MDR Van A ATCC 51559
Format: cell-based
CONDITION LABEL: 24 h incubation, visual reading
PROPERTY MEASURED: Minimum Inhibitory Concentration (MIC) E. faecium ATCC51559

Worked examples, 5 compounds total:
Prompt line: Which Minimum Inhibitory Concentration (MIC) E. faecium ATCC51559 is listed for CCCCCCCCCC(=O)N[C@@H](CCCCN1CCOCC1)C(=O)N[C@@H](CCCCNC(=O)[C@H]1NC(=O)[C@H]2NC(=O)[C@H](NC(=O)[C@@H]3NC(=O)[C@H](CC(N)=O)NC(=O)[C@H](NC(=O)[C@@H](CC(C)C)NC)[C@H](O)c4ccc(c(Cl)c4)Oc4cc3cc(c4O[C@@H]3O[C@H](CO)[C@@H](O)[C@H](O)[C@H]3O[C@H]3C[C@](C)(N)[C@H](O)[C@H](C)O3)Oc3ccc(cc3Cl)[C@H]2O)c2ccc(O)c(c2)-c2c(O)cc(O)cc21)C(=O)O ?
Response line: x (x = >4)

Prompt line: I have this compound here, CCCCCCC(CCCC)C(=O)NCCCC[C@H](NC(=O)C(CCCC)CCCCCC)C(=O)N[C@@H](CCCCN)C(=O)N[C@@H](CCCCN)C(=O)N[C@@H](CCCCNC(=O)[C@H]1NC(=O)[C@H]2NC(=O)[C@H](NC(=O)[C@@H]3NC(=O)[C@H](CC(N)=O)NC(=O)[C@H](NC(=O)[C@@H](CC(C)C)NC)[C@H](O)c4ccc(c(Cl)c4)Oc4cc3cc(c4O[C@@H]3O[C@H](CO)[C@@H](O)[C@H](O)[C@H]3O[C@H]3C[C@](C)(N)[C@H](O)[C@H](C)O3)Oc3ccc(cc3Cl)[C@H]2O)c2ccc(O)c(c2)-c2c(O)cc(O)cc21)C(=O)NC (some centres unmarked) , and I need its recorded Minimum Inhibitory Concentration (MIC) E. faecium ATCC51559.
Response line: xxx (xxx = 0.1-<1)

Prompt line: State the recorded Minimum Inhibitory Concentration (MIC) E. faecium ATCC51559 for this entry: CCCCCCCCCCCCCC(=O)N[C@@H](CCCN)C(=O)N[C@@H](CCCN)C(=O)NCC(=O)NCCNC(=O)[C@H]1NC(=O)[C@H]2NC(=O)[C@H](NC(=O)[C@@H]3NC(=O)[C@H](CC(N)=O)NC(=O)[C@H](NC(=O)[C@@H](CC(C)C)NC)[C@H](O)c4ccc(c(Cl)c4)Oc4cc3cc(c4O[C@@H]3O[C@H](CO)[C@@H](O)[C@H](O)[C@H]3O[C@H]3C[C@](C)(N)[C@H](O)[C@H](C)O3)Oc3ccc(cc3Cl)[C@H]2O)c2ccc(O)c(c2)-c2c(O)cc(O)cc21
Response line: xxxx (xxxx = 0.01-<0.1)

Prompt line: Using the record for CCCCCCCCCC(=O)N[C@@H](CCCCN)C(=O)N[C@@H](CCCCN)C(=O)NCCNC(=O)[C@H]1NC(=O)[C@H]2NC(=O)[C@H](NC(=O)[C@@H]3NC(=O)[C@H](CC(N)=O)NC(=O)[C@H](NC(=O)[C@@H](CC(C)C)NC)[C@H](O)c4ccc(c(Cl)c4)Oc4cc3cc(c4O[C@@H]3O[C@H](CO)[C@@H](O)[C@H](O)[C@H]3O[C@H]3C[C@](C)(N)[C@H](O)[C@H](C)O3)Oc3ccc(cc3Cl)[C@H]2O)c2ccc(O)c(c2)-c2c(O)cc(O)cc21 , report its Minimum Inhibitory Concentration (MIC) E. faecium ATCC51559.
Response line: x (x = >4)

Prompt line: Bench note: what Minimum Inhibitory Concentration (MIC) E. faecium ATCC51559 did CCCCCCCCC(=O)N[C@@H](CCCCN)C(=O)N[C@@H](CCCCN)C(=O)NCCNC(=O)[C@H]1NC(=O)[C@H]2NC(=O)[C@H](NC(=O)[C@@H]3NC(=O)[C@H](CC(N)=O)NC(=O)[C@H](NC(=O)[C@@H](CC(C)C)NC)[C@H](O)c4ccc(c(Cl)c4)Oc4cc3cc(c4O[C@@H]3O[C@H](CO)[C@@H](O)[C@H](O)[C@H]3O[C@H]3C[C@](C)(N)[C@H](O)[C@H](C)O3)Oc3ccc(cc3Cl)[C@H]2O)c2ccc(O)c(c2)-c2c(O)cc(O)cc21 show?
Response line: x (x = >4)

State recorded Minimum Inhibitory Concentration (MIC) E. faecium ATCC51559 for all listed compounds.
1. CCCCCCCCCCCCCC(=O)N[C@@H](CCCCN)C(=O)N[C@@H](CCCCN)C(=O)N[C@@H](CCCCNC(=O)[C@H]1NC(=O)[C@H]2NC(=O)[C@H](NC(=O)[C@@H]3NC(=O)[C@H](CC(N)=O)NC(=O)[C@H](NC(=O)[C@@H](CC(C)C)NC)[C@H](O)c4ccc(c(Cl)c4)Oc4cc3cc(c4O[C@@H]3O[C@H](CO)[C@@H](O)[C@H](O)[C@H]3O[C@H]3C[C@](C)(N)[C@H](O)[C@H](C)O3)Oc3ccc(cc3Cl)[C@H]2O)c2ccc(O)c(c2)-c2c(O)cc(O)cc21)C(=O)NC
2. CNC(=O)[C@H](CCCCNC(=O)[C@H]1NC(=O)[C@H]2NC(=O)[C@H](NC(=O)[C@@H]3NC(=O)[C@H](CC(N)=O)NC(=O)[C@H](NC(=O)[C@@H](CC(C)C)NC)[C@H](O)c4ccc(c(Cl)c4)Oc4cc3cc(c4O[C@@H]3O[C@H](CO)[C@@H](O)[C@H](O)[C@H]3O[C@H]3C[C@](C)(N)[C@H](O)[C@H](C)O3)Oc3ccc(cc3Cl)[C@H]2O)c2ccc(O)c(c2)-c2c(O)cc(O)cc21)NC(=O)[C@H](CCCCN)NC(=O)[C@H](CCCCN)NS(=O)(=O)c1ccc(C)cc1
3. CCCCCCCCCCC(=O)N[C@@H](CCCCN)C(=O)N[C@@H](CCCCN)C(=O)N[C@@H](CCCCN)C(=O)N[C@@H](CCCCNC(=O)[C@H]1NC(=O)[C@H]2NC(=O)[C@H](NC(=O)[C@@H]3NC(=O)[C@H](CC(N)=O)NC(=O)[C@H](NC(=O)[C@@H](CC(C)C)NC)[C@H](O)c4ccc(c(Cl)c4)Oc4cc3cc(c4O[C@@H]3O[C@H](CO)[C@@H](O)[C@H](O)[C@H]3O[C@H]3C[C@](C)(N)[C@H](O)[C@H](C)O3)Oc3ccc(cc3Cl)[C@H]2O)c2ccc(O)c(c2)-c2c(O)cc(O)cc21)C(=O)O [MCC_000229, nC10CO-KKK-K(Vanc)-OH]

Response line:
["xxx (xxx = 0.1-<1)", "x (x = >4)", "xxxx (xxxx = 0.01-<0.1)"]
